protocol-text: Water solubility determination (HPLC)
Type: physicochemical
measurement-context: aqueous buffer, thermodynamic from solid; MOPS buffer pH 7.4, room temperature
reported-metric: solubility at 20 min (µg/mL)

CN(C)CC=CC(=O)Nc1cc2c(Nc3cc(Cl)c(Cl)cc3F)ncnc2cc1OCCOCCOCCOCCF [Compound 10b]: 3.5
CN(C)CC=CC(=O)Nc1ccc2ncnc(Nc3cc(Cl)c(Cl)cc3F)c2c1 [ML04, reference compound]: 0.14

----------
protocol-text: Partition coefficient determination (1-octanol/buffer, HPLC)
Type: physicochemical
measurement-context: 1-octanol / sodium phosphate buffer 0.1 M, pH 7.4; read-out: Log P (partition coefficient)
reported-metric: logP

CN(C)CC=CC(=O)Nc1cc2c(Nc3cc(Cl)c(Cl)cc3F)ncnc2cc1OCCOCCOCCOCCF [Compound 10b]: 3.7
CN(C)CC=CC(=O)Nc1ccc2ncnc(Nc3cc(Cl)c(Cl)cc3F)c2c1 [ML04, reference compound]: 3.9

----------
target-desc: EGFR (Homo sapiens, UniProt P00533)
Construct: endogenous in cells
Sequence (P00533 25-1210): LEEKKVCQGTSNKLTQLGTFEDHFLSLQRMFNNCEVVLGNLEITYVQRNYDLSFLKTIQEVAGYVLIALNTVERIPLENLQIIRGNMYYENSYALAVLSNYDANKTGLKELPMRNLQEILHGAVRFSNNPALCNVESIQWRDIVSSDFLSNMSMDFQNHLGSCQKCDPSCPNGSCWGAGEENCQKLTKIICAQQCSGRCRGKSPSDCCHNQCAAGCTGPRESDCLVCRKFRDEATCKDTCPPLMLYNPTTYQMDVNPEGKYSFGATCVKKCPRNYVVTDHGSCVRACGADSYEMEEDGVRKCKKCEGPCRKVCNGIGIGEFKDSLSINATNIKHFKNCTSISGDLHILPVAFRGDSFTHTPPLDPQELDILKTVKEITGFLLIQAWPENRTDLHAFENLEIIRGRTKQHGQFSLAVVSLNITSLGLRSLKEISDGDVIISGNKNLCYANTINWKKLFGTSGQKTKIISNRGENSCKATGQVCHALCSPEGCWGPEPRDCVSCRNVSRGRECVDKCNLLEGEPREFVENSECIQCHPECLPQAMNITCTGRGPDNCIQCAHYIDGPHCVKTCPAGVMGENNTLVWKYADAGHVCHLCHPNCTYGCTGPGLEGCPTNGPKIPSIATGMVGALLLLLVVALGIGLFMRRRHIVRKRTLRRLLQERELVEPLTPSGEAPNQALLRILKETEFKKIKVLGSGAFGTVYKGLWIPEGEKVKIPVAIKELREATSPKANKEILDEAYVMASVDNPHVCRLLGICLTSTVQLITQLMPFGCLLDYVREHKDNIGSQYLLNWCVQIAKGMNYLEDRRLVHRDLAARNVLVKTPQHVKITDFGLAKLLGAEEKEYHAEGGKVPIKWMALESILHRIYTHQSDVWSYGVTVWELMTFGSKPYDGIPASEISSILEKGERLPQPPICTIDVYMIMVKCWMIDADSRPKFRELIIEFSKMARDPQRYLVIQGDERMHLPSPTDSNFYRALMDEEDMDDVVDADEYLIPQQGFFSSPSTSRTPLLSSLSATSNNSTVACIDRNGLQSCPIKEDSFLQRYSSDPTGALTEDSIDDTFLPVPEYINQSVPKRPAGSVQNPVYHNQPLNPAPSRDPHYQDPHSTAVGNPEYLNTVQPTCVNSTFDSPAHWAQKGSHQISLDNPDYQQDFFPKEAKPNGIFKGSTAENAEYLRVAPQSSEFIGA
protocol-text: Irreversibility test protocol: EGFR autophosphorylation inhibition in intact A431 cells (Western blot)
measurement-context: intact A431 cells, 1 hour incubation with inhibitor, EGF stimulation; read-out: IC50 vis-à-vis the level of EGFR's phosphotyrosine content
Method: Irreversibility Test Protocol: The inhibitory potency of compounds 1a-c, as well as the irreversible nature of EGFR inhibition thereof were evaluated in intact A431 cells, according to published procedures (Smail et al., 1999). […] The degree of EGFR phosphorylation was measured for each set of cells and the IC50 values of Compounds 1a-c and 10b, vis-à-vis the level of EGFR's phosphotyrosine content were determined. […]
reported-metric: IC50

CN(C)CC=CC(=O)Nc1cc2c(Nc3cc(Cl)c(Cl)cc3F)ncnc2cc1OCCOCCOCCOCCF [Compound 10b]: 5 nM
